- System: LOC_OS02G45750-cb003
- TEST: thermal shift delta Tm vs DMSO control; higher = stronger stabilization (binding);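 note: purified Escherichia coli-expressed rice kinase domain construct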
- COND: 12.5 µM; protein concentration 2 µM
RESULT_TYPE: thermal shift delta Tm (°C)
Report only the number, with the unit °C understood.

Find thermal shift delta Tm (LOC_OS02G45750-cb003) for the entry COc1cc2ncc(-c3ccccc3)nc2cc1OC [Tyrphostin AG 1296]
4.58

API: value(readout= thermal shift delta Tm, system= LOC_OS02G45750-cb003, query= `Cc1cc(C(=O)NOCCO)c(Nc2ccc(I)cc2F)n(C)c1=O` )
-0.39

Field: thermal shift delta Tm (LOC_OS02G45750-cb003). Entry: `CC(C)(C)Cn1c(N)nc2ccc(-c3[nH]c(C(C)(C)C)nc3-c3ccc(F)cc3)nc21`
0.45

Please state recorded thermal shift delta Tm (tested on LOC_OS02G45750-cb003) of CC[C@@](C)(Nc1ccnc(-c2c[nH]c3ncccc23)n1)C(=O)NCC(F)(F)F [Decernotinib (VX-509)]
1.82

Tell me reported thermal shift delta Tm for `Cc1ccc(C(=O)Nc2ccc(Oc3cc4cnn(C)c4cc3-c3cn[nH]c3)c(F)c2)c(=O)n1-c1ccc(F)cc1` , tested with LOC_OS02G45750-cb003.
1.6

Notebook entry, LOC_OS02G45750-cb003 assay: thermal shift delta Tm of `Cc1cc(CN2CCN(c3c(Br)cnc4nc(-c5ccc(N6CCN(C)CC6)cc5)[nH]c34)CC2)no1` = ?
11.1

Continuing:
thermal shift delta Tm of `COCCOc1ccc2c(c1)ncn2-c1ccc2cccc(N3CCC(N)CC3)c2n1` on LOC_OS02G45750-cb003?
16.5

Item: CNC(=O)c1ccccc1Sc1ccc2c(/C=C/c3ccccn3)n[nH]c2c1 [Axitinib] Test system: LOC_OS02G45750-cb003 Read-out: thermal shift delta Tm Value: ?
4.92

Missing value: thermal shift delta Tm, LOC_OS02G45750-cb003, entry `COCCOc1cnc2ccn([C@H](C)c3nnc4c(F)cc(-c5cnn(C)c5)cn34)c(=O)c2c1` . Fill in?
1.08

* * *

- Tested on: LOC_OS02G07810-cb001
- TEST: thermal shift delta Tm vs DMSO control; higher = stronger stabilization (binding)
- COND: 12.5 µM; protein concentration 2 µM
A collection of molecules and their measured thermal shift delta Tm
Express your answer in °C, writing the number without its unit.

Some solved entries appear below for comparison.
Requested field: thermal shift delta Tm. Item: `CN(C)S(=O)(=O)c1ccc2c(c1)/C(=C/c1cc3c([nH]1)CCCC3)C(=O)N2`
1.5

Item under review: `CNC(=O)c1ccc(-c2cnc3ncc(Cc4ccc5ncccc5c4)n3n2)cc1F` . Reported thermal shift delta Tm?
0.83

Suppose we examine the molecule `Oc1c(F)cc(-c2cnccc2-c2ccc(N3CCOCC3)cc2)cc1F` ; what thermal shift delta Tm value has been reported?
0.35

Could you share which thermal shift delta Tm value was measured for `Cc1cn(-c2cc(NC(=O)c3ccc(C)c(Nc4nccc(-c5cccnc5)n4)c3)cc(C(F)(F)F)c2)cn1` ?
0.5

// query thermal shift delta Tm value for entry `CC(C)(C)Cn1c(N)nc2ccc(-c3[nH]c(C(C)(C)C)nc3-c3ccc(F)cc3)nc21`
-0.18

Entry under review: `Cc1cnc(Nc2ccc(N3CCN(C)CC3)cc2)nc1Nc1cccc(S(=O)(=O)NC(C)(C)C)c1` . Reported thermal shift delta Tm?
0.9

If you can, please state the reported thermal shift delta Tm value of `FC(F)(F)c1ccc(/C=C/c2nc(COc3ccc(CCCCn4ccnn4)cc3)co2)cc1` .
0.23

Others:
I would be grateful if you could share the reported thermal shift delta Tm for `CC[C@@](C)(Nc1ccnc(-c2c[nH]c3ncccc23)n1)C(=O)NCC(F)(F)F` .
0.36
